# TARGET_SYSTEM: mMC5R (Mus musculus)
# Sequence (P41149 whole entry): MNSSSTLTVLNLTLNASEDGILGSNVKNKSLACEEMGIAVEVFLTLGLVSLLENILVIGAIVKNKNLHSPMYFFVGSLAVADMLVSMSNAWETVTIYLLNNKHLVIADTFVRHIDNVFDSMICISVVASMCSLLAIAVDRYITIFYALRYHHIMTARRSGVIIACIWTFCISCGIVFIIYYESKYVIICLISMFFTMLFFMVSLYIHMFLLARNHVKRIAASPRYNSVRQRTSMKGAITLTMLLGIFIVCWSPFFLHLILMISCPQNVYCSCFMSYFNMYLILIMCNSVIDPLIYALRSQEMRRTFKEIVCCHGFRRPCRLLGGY
# METHOD: CRE/β-galactosidase reporter gene bioassay, agonist activity at mMC5R
# Format: cell-based
# CONDITION_LABEL: fold difference in EC50 vs peptide 1; negative prefix = more potent than 1
Square brackets hold non-standard residues; d marks the D form. Peptide text beside a SMILES is read from it. * marks the point of attachment. dBip = N[C@H](Cc1ccc(-c2ccccc2)cc1)C(=O)O; dPhe(4-I) = N[C@H](Cc1ccc(I)cc1)C(=O)O; 2Nal = N[C@@H](Cc1ccc2ccccc2c1)C(=O)O; d1Nal = N[C@H](Cc1cccc2ccccc12)C(=O)O; d2Nal = N[C@H](Cc1ccc2ccccc2c1)C(=O)O; 3Pal = N[C@@H](Cc1cccnc1)C(=O)O; 4Pal = N[C@@H](Cc1ccncc1)C(=O)O; 2Thi = N[C@@H](Cc1cccs1)C(=O)O; Octanoyl = CCCCCCCC(=O)*
ENDPOINT_NAME: mMC5R Fold Diff.

Observe how each entry below is paired with its result.
Req: Can you look up mMC5R Fold Diff. on mMC5R (Mus musculus) for CCCCCCCC(=O)N[C@@H](Cc1c[nH]cn1)C(=O)N[C@H](Cc1ccccc1)C(=O)N[C@@H](CCCNC(=N)N)C(=O)N[C@H](Cc1ccc(-c2ccccc2)cc1)C(N)=O [Peptide 8, Octanoyl-His-DPhe-Arg-DBip-NH2] (Octanoyl-H[dF]R[dBip]-NH2) ?
Resp: 6

Req: Can you look up mMC5R Fold Diff. on mMC5R (Mus musculus) for CC(=O)N[C@@H](Cc1cccs1)C(=O)N[C@H](Cc1ccccc1)C(=O)N[C@@H](CCCNC(=N)N)C(=O)N[C@@H](Cc1ccc2ccccc2c1)C(N)=O [Peptide 28, Ac-2Thi-DPhe-Arg-Nal(2’)-NH2] (Ac-[2Thi][dF]R[2Nal]-NH2) ?
Resp: 14

Req: Can you look up mMC5R Fold Diff. on mMC5R (Mus musculus) for CC(=O)N[C@@H](Cc1ccccc1)C(=O)N[C@H](Cc1cccc2ccccc12)C(=O)N[C@@H](CCCNC(=N)N)C(=O)N[C@@H](Cc1c[nH]c2ccccc12)C(N)=O [Peptide 21, Ac-Phe-DNal(1’)-Arg-Trp-NH2] (Ac-F[d1Nal]RW-NH2) ?
Resp: 720

Req: Can you look up mMC5R Fold Diff. on mMC5R (Mus musculus) for CC(=O)N[C@@H](Cc1ccncc1)C(=O)N[C@H](Cc1ccc(I)cc1)C(=O)N[C@@H](CCCNC(=N)N)C(=O)N[C@@H](Cc1c[nH]c2ccccc12)C(N)=O [Peptide 16, Ac-4PAL-(pI)DPhe-Arg-Trp-NH2] (Ac-[4Pal][dPhe(4-I)]RW-NH2) ?
Resp: 114

Req: Can you look up mMC5R Fold Diff. on mMC5R (Mus musculus) for CC(=O)N[C@@H](Cc1c[nH]c2ccccc12)C(=O)N[C@H](Cc1ccccc1)C(=O)N[C@@H](CCCNC(=N)N)C(=O)N[C@H](Cc1ccc2ccccc2c1)C(N)=O [Peptide 26, Ac-Trp-DPhe-Arg-DNal(2’)-NH2] (Ac-W[dF]R[d2Nal]-NH2) ?
Resp: 1094

More entries:
Req: Can you look up mMC5R Fold Diff. on mMC5R (Mus musculus) for CC(=O)N[C@@H](Cc1ccncc1)C(=O)N[C@H](Cc1ccc(-c2ccccc2)cc1)C(=O)N[C@@H](CCCNC(=N)N)C(=O)N[C@@H](Cc1c[nH]c2ccccc12)C(N)=O [Peptide 22, Ac-4PAL-DBip-Arg-Trp-NH2] (Ac-[4Pal][dBip]RW-NH2) ?
Resp: 235

Req: Can you look up mMC5R Fold Diff. on mMC5R (Mus musculus) for CC(=O)N[C@@H](Cc1cccnc1)C(=O)N[C@H](Cc1ccc(I)cc1)C(=O)N[C@@H](CCCNC(=N)N)C(=O)N[C@@H](Cc1c[nH]c2ccccc12)C(N)=O [Peptide 12, Ac-3PAL-(pI)DPhe-Arg-Trp-NH2] (Ac-[3Pal][dPhe(4-I)]RW-NH2) ?
Resp: 3340

Req: Can you look up mMC5R Fold Diff. on mMC5R (Mus musculus) for CC(=O)N[C@@H](Cc1c[nH]cn1)C(=O)N[C@H](Cc1ccc(-c2ccccc2)cc1)C(=O)N[C@@H](CCCNC(=N)N)C(=O)N[C@H](Cc1ccc(-c2ccccc2)cc1)C(N)=O [Peptide 35, Ac-His-DBip-Arg-DBip-NH2] (Ac-H[dBip]R[dBip]-NH2) ?
Resp: 8
